- Test system: HOP-92
- ASSAY_COMMENT: NCI tumour cell line growth inhibition, 48 h
Activity calls are given as the source filed them. Cut-off read from the data, not from the text of the source: active = GI50 up to about 1.1 µM and inactive = higher.
Select the matching outcome among active, inactive

{"columns": ["COMPOUND", "LABEL_VALUE"],
 "data": [
  ["COc1cc2cc(C(=O)N3CC(CCl)c4c3cc(NC(=O)OCc3ccc([N+](=O)[O-])cc3)c3ccccc43)[nH]c2c(OC)c1OC (stereo not drawn)", "inactive"],
  ["O/N=C1/C(=C/c2ccc(OCc3ccccc3)cc2)CCCC1C(NO)c1ccc(OCc2ccccc2)cc1 (stereo not drawn)", "inactive"],
  ["CN(CCN(C)Cc1ccc(Cl)c(Cl)c1)CCN1CCCC1", "inactive"],
  ["C=C1C(OC(C)=O)CC(OC(C)=O)C2(C)C(OC(C)=O)C(OC(C)=O)C3=C(C)C(OC(=O)/C=C/c4ccccc4)CC(C(OC(C)=O)C12)C3(C)C (stereo not drawn)", "inactive"],
  ["CCC/C(=N\\NC(=O)c1cc2ccccc2cc1O)C(CC)C(=O)CCC(=O)N(Cc1ccccc1)Cc1ccccc1 (stereo not drawn)", "inactive"]
]}

Outcome? Cn1cnc(N2CCCC2)c(C#N)c1=S inactive

And what about the compound COC(=O)c1c(O)ccc2c1c1c(n2CCc2ccccc2)C(=O)c2ccccc2C1 ? inactive

And what about the compound CC(O)c1c2c(cc3c1CC1(C3)Cc3cc4c(c(C(C)O)c3C1)CCC4)CCC2 (stereo not drawn) ? inactive

And what about the compound N=C(N)NS(=O)(=O)c1ccc(NC(=O)c2ccc3nc4ccccc4c(Nc4ccc(S(=O)(=O)N=C(N)N)cc4)c3c2)cc1 ? inactive

And what about the compound O=C1C(c2ccccc2)=[N+]([O-])c2cc([N+](=O)[O-])ccc21 ? inactive

And what about the compound N#Cc1nc(-c2ccccc2C(=O)O)oc1N ? inactive

And what about the compound Cc1cn(C2CC(Br)C(COC(c3ccccc3)(c3ccccc3)c3ccccc3)O2)c(=O)[nH]c1=O (stereo not drawn) ? inactive

And what about the compound CC(C)[C@H](O)C(=O)N[C@H]1Cc2ccc3c(c2)[C@]24C5=C(N=C(O5)[C@H](C(C)C)NC1=O)c1nc(Cl)c(o1)-c1c(Cl)[nH]c5cccc(c15)-c1cccc2c1N[C@H]4O3 ? active

And what about the compound O=[N+]([O-])/C=C/COCc1cc2c(cc1Br)OCO2 ? inactive
